Data provenance: patent US20040147432A1

Hi there, I'd appreciate the recorded Activation % at 10 µM (aequorin functional assay) for every entry that follows.
- Target: human MCH-1R (human, UniProt Q99705 1-353)
- Sequence (Q99705 whole entry, form in doubt): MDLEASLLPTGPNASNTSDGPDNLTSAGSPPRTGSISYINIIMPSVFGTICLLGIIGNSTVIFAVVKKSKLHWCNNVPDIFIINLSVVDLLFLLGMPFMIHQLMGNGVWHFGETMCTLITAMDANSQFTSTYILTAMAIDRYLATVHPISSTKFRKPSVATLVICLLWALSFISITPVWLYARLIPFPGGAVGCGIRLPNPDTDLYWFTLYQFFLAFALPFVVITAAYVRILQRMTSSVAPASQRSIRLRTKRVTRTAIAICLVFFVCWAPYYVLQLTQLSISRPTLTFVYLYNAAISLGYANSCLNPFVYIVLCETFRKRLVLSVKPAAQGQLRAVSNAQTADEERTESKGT
- Assay explanation: cell-based or functional assay
Bridges are numbered along the chain shown (N, C = ends).
Dear colleague, please return just the value in %, with no unit written.

Record request: Activation % at 10 µM (aequorin functional assay) value, item Ac-RCMLARVYRPC-NH2 (disulfide 2-11; SMILES CSCC[C@@H]1NC(=O)[C@@H](NC(=O)[C@H](CCCNC(=N)N)NC(C)=O)CSSC[C@@H](C(N)=O)NC(=O)[C@@H]2CCCN2C(=O)[C@H](CCCNC(=N)N)NC(=O)[C@H](Cc2ccc(O)cc2)NC(=O)[C@H](C(C)C)NC(=O)[C@H](CCCNC(=N)N)NC(=O)[C@H](C)NC(=O)[C@H](CC(C)C)NC1=O, also called Ala^10) [SEQ. ID. NO. 7] 104

Record request: Activation % at 10 µM (aequorin functional assay) value, item RCMLXRVYRPC (Nle^10 (norleucine)) [SEQ. ID. NO. 9] 106

Record request: Activation % at 10 µM (aequorin functional assay) value, item RCMLGRVXRPC (Phe(pF)^13, also called Phe(pF)^13) [SEQ. ID. NO. 29] 98

Record request: Activation % at 10 µM (aequorin functional assay) value, item RCMLGXVYRPC (N-Me-Arg^11) [SEQ. ID. NO. 22] 110

Record request: Activation % at 10 µM (aequorin functional assay) value, item Ac-CMLGRVYRPC-NH2 (disulfide 1-10; not fully specified, positions numbered as in hMCH; also called ?Arg^6) [SEQ. ID. NO. 3] 6.5
